Target: EphA3-EphrinA5 (Homo sapiens)
Sequence (P29320 21-541 limits assumed): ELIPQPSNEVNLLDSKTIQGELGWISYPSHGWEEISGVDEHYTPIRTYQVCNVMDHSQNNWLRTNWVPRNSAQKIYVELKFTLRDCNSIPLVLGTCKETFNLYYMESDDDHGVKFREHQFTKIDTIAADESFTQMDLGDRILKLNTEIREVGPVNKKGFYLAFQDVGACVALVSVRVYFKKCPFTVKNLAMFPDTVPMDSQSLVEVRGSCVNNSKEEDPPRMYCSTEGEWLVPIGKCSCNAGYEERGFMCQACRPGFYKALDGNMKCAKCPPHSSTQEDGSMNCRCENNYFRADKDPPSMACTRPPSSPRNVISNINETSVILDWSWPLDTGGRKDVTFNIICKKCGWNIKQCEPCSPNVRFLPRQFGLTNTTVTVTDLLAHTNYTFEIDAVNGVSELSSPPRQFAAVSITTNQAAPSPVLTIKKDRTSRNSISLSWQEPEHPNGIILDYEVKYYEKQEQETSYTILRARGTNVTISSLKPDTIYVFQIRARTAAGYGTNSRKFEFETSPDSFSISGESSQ
Assay: Octet, immobilized human EphA3 binding to human EphrinA5
pIC50: −log10 of the molar value.
Here the recorded pIC50 is given for each entry.
observationType: pIC50

INSERT INTO results (molecularstring, targetentity, resultnumber) VALUES
  ('Oc1c(Cl)cc(CN2CCOCC2)c2cccnc12', 'EphA3-EphrinA5 (Homo sapiens)', 6.27),
  ('O=S1(=O)CCN(Cc2ccc(O)c3ncccc23)CC1', 'EphA3-EphrinA5 (Homo sapiens)', 5.68),
  ('O=[N+]([O-])c1cc(CN2CCOCC2)c2cccnc2c1O', 'EphA3-EphrinA5 (Homo sapiens)', 5.35),
  ('Oc1ccc(CN2CCOCC2)c2cccnc12', 'EphA3-EphrinA5 (Homo sapiens)', 5.49),
  ('Oc1c(Br)cc(CN2CCOCC2)c2cccnc12', 'EphA3-EphrinA5 (Homo sapiens)', 6.43),
  ('Oc1c(I)cc(CN2CCOCC2)c2cccnc12', 'EphA3-EphrinA5 (Homo sapiens)', 6.44),
  ('Oc1ccc(CN2CCN(Cc3ccc(C(F)(F)F)cc3)CC2)c2cccnc12', 'EphA3-EphrinA5 (Homo sapiens)', 5.36);

Each recorded value in this set is attributed to patent US20260374739A1.
